# measured.on: Ephrin type-A receptor 2 (Homo sapiens)
# Sequence (P29317 whole entry, the tested form may be a part): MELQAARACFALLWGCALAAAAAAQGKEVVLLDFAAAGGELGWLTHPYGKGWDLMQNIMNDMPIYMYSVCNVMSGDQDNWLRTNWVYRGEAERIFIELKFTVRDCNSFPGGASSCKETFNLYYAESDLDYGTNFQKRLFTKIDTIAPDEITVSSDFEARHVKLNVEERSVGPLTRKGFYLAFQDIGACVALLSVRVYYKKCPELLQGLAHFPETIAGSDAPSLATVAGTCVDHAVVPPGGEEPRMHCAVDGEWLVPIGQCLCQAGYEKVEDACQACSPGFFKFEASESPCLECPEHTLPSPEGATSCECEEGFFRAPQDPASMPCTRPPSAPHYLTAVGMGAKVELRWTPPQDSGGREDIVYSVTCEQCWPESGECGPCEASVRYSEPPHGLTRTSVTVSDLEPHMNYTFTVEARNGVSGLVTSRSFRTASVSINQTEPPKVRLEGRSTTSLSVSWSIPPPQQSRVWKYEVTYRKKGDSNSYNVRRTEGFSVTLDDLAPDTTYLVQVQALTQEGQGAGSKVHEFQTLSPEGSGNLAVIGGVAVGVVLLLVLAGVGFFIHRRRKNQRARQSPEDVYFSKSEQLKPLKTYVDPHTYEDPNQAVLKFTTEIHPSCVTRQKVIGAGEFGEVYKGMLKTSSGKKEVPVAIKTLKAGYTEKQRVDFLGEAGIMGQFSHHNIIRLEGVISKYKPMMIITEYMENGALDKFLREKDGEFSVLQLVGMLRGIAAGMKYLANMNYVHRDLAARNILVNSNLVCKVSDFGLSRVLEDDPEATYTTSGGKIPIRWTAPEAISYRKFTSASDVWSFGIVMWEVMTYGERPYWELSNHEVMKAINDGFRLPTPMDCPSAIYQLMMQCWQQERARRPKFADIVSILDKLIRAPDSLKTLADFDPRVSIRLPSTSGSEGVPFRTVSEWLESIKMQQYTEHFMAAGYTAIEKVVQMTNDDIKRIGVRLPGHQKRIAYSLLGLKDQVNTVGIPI
# test.description: Inhibition of recombinant human N-terminal His6-tagged EphA2 (N598 to R890 residues) expressed in baculovirus using poly-EY as substrate after 180 mins by luciferase coupled chemiluminescence assay
pIC50: −log10 of the molar value.
Would you mind telling me the reported pIC50 of each entry?

Task: So what's the measured pIC50 for this one? COc1cc2c(Nc3ccc(Br)c(Cl)c3Cl)ncnc2cc1OCC1CN(C)C(C)(C)CO1 (centres undefined)
Output: > 7.30

Task: So what's the measured pIC50 for this one? COc1cc2c(Nc3ccc(Cl)c(Cl)c3)ncnc2cc1OCC1CN(C(=O)c2ccc(Cl)nc2)CCO1 (centres undefined)
Output: 6.00 to 7.30

Task: So what's the measured pIC50 for this one? COc1cc2c(Nc3cccc(Cl)c3C)ncnc2cc1OCC1CN(C)CCO1 (centres undefined)
Output: > 7.30

Task: So what's the measured pIC50 for this one? CCC(CC)CN1CCCOC(COc2cc3ncnc(Nc4ccc(Cl)c(Cl)c4)c3cc2OC)C1 (centres undefined)
Output: 6.00 to 7.30

Task: So what's the measured pIC50 for this one? COc1cc2c(Nc3ccc(Cl)c(Cl)c3F)ncnc2cc1OC[C@@H]1CN(C)CC(=O)N1C
Output: 6.00 to 7.30

Task: So what's the measured pIC50 for this one? COc1cc2c(Nc3ccc(Cl)c(Cl)c3)ncnc2cc1OCC1CN(S(C)(=O)=O)CCCO1 (centres undefined)
Output: 6.00 to 7.30

Task: So what's the measured pIC50 for this one? CCCCN1CCOC(COc2cc3ncnc(Nc4ccc(Cl)c(Cl)c4)c3cc2OC)C1 (centres undefined)
Output: 6.00 to 7.30

Task: So what's the measured pIC50 for this one? CCCC(CCC)C(=O)N1CCOC(COc2cc3ncnc(Nc4ccc(Cl)c(Cl)c4)c3cc2OC)C1 (centres undefined)
Output: 6.00 to 7.30

Task: So what's the measured pIC50 for this one? COc1cc2c(Nc3ccc(Br)cc3F)ncnc2cc1OCC1CCN(C(N)=NC#N)CC1
Output: 6.00 to 7.30

Task: So what's the measured pIC50 for this one? COc1cc2c(Nc3ccc(F)c(Cl)c3F)ncnc2cc1OCC1CN(C)CCO1 (centres undefined)
Output: > 7.30

Task: So what's the measured pIC50 for this one? COc1cc2c(Nc3ccc(Cl)c(Cl)c3)ncnc2cc1OCC1CN(Cc2ccccn2)CCO1 (centres undefined)
Output: 6.00 to 7.30

Task: So what's the measured pIC50 for this one? COc1cc2c(Nc3ccc(Cl)c(Cl)c3)ncnc2cc1OCCC1CN(C)CC(C)(C)O1 (centres undefined)
Output: 4.70 to 6.00

Task: So what's the measured pIC50 for this one? COc1cc2c(Nc3ccc(Br)c(Cl)c3F)ncnc2cc1OCC1CN(C)C(C)(C)CO1 (centres undefined)
Output: > 7.30

Task: So what's the measured pIC50 for this one? COc1cc2c(Nc3ccc(Cl)c(Cl)c3)ncnc2cc1OCC1CN(C(=O)c2c(F)ccc(F)c2F)CCO1 (centres undefined)
Output: 6.00 to 7.30

Task: So what's the measured pIC50 for this one? COc1cc2c(Nc3ccc(Cl)c(Cl)c3)ncnc2cc1OCC1CN(CC(N)=O)CCO1 (centres undefined)
Output: 6.00 to 7.30

Task: So what's the measured pIC50 for this one? COc1cc2c(Nc3cc(Cl)c(Cl)c(Cl)c3)ncnc2cc1OCC1CN(C)CCO1 (centres undefined)
Output: 6.00 to 7.30

Task: So what's the measured pIC50 for this one? C=CCCCCCCN1CCOC(COc2cc3ncnc(Nc4ccc(Cl)c(Cl)c4)c3cc2OC)C1 (centres undefined)
Output: 6.00 to 7.30

Task: So what's the measured pIC50 for this one? COc1cc2c(Nc3ccc(Cl)c(Cl)c3)ncnc2cc1OCC1CN(CCCOC2CCCCO2)CCCO1 (centres undefined)
Output: 6.00 to 7.30

Task: So what's the measured pIC50 for this one? COc1cc2c(Nc3ccc(Cl)c(Cl)c3F)ncnc2cc1OC[C@@H]1CN2CCOC[C@H]2CO1
Output: > 7.30

* * *

# measured.on: Receptor tyrosine-protein kinase erbB-2 (Homo sapiens)
# Sequence (P04626 whole entry, the tested form may be a part): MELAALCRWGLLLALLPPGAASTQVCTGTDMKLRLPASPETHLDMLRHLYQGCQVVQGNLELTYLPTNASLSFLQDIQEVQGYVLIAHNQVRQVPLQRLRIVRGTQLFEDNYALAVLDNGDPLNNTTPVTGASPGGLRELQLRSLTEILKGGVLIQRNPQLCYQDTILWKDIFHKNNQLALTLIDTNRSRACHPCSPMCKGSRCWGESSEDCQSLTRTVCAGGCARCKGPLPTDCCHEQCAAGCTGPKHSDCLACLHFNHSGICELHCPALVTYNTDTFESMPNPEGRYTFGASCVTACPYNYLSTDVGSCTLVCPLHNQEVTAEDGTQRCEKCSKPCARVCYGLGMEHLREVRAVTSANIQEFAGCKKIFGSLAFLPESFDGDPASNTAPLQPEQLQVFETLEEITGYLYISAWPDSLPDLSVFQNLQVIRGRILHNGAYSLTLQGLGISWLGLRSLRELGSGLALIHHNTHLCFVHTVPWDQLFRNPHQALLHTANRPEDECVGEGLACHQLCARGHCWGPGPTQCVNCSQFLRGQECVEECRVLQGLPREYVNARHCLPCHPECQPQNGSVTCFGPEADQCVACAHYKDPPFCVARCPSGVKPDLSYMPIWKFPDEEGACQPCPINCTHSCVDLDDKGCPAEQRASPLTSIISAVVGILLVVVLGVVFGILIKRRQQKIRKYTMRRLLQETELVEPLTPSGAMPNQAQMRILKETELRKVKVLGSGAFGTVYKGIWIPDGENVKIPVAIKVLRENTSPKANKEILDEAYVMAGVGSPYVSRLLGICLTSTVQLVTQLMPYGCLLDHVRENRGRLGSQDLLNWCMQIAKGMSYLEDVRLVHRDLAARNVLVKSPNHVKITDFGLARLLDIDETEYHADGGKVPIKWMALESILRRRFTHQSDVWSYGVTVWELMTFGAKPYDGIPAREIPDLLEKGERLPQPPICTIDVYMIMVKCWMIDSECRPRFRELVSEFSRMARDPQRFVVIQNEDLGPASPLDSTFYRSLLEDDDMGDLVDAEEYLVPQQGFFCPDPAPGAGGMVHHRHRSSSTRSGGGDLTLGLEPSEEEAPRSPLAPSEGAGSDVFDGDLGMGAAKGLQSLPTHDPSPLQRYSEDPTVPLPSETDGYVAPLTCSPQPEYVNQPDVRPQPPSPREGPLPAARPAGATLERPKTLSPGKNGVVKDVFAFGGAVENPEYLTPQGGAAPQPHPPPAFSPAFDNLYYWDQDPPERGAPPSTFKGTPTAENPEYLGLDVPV
# test.description: Inhibition of recombinant human N-terminal GST His6-tagged thrombin cleavage site-fused ErbB2 kinase domain (Q679 to V1255 residues) expressed in baculovirus infected insect Sf9 cells using biotinylated poly-EY as substrate after 60 mins by alphascreen assay
measurement.label: IC50

Task: So what's the measured IC50 for this one? COc1cc2c(Nc3ccc(Cl)c(Cl)c3)ncnc2cc1OCC1CN(S(C)(=O)=O)CCCO1 (stereo unspecified)
Output: < 0.05 µM

Task: So what's the measured IC50 for this one? COc1cc2c(Nc3ccc(Cl)c(Cl)c3F)ncnc2cc1OC[C@@H]1CN(C)CC(=O)N1C
Output: 1 to 20 µM

Task: So what's the measured IC50 for this one? COc1cc2c(Nc3ccc(Br)c(Cl)c3)ncnc2cc1O[C@@H]1CCOC1
Output: 0.05 to 1 µM

Task: So what's the measured IC50 for this one? COc1cc2c(Nc3ccc(F)c(Cl)c3F)ncnc2cc1OC[C@@H]1CN2CCC[C@H]2CO1
Output: 0.05 to 1 µM

Task: So what's the measured IC50 for this one? COc1cc2c(Nc3ccc(Cl)c(Cl)c3)ncnc2cc1OCCC1CN(C)C(C)(C)CO1 (stereo unspecified)
Output: 0.05 to 1 µM

Task: So what's the measured IC50 for this one? COc1cc2c(Nc3ccc(Cl)c(Cl)c3Cl)ncnc2cc1OCC1CN(C)CCO1 (stereo unspecified)
Output: 0.05 to 1 µM

Task: So what's the measured IC50 for this one? COc1cc2c(Nc3ccc(Cl)c(Cl)c3)ncnc2cc1OCC1CN(CC(N)=O)CCO1 (stereo unspecified)
Output: < 0.05 µM

Task: So what's the measured IC50 for this one? COc1cc2c(Nc3ccc(Cl)c(Cl)c3)ncnc2cc1OCC1CN(/C(=N/C#N)N2CCCC2)CCO1 (stereo unspecified)
Output: < 0.05 µM

Task: So what's the measured IC50 for this one? CCS(=O)(=O)N1CCOC(COc2cc3ncnc(Nc4ccc(Cl)c(Cl)c4)c3cc2OC)C1 (stereo unspecified)
Output: < 0.05 µM

Task: So what's the measured IC50 for this one? COc1cc2c(Nc3ccc(N4CCN(C)CC4)cc3)ncnc2cc1O[C@H]1CO[C@H]2[C@@H]1OC[C@@H]2F
Output: 1 to 20 µM

Task: So what's the measured IC50 for this one? COc1cc2c(Nc3ccc(Cl)c(Cl)c3F)ncnc2cc1OC[C@@H]1CN2CCOC[C@H]2CO1
Output: < 0.05 µM

Task: So what's the measured IC50 for this one? COc1cc2c(Nc3ccc(F)c(Cl)c3F)ncnc2cc1OC[C@@H]1CN2CCOC[C@H]2CO1
Output: 0.05 to 1 µM

Task: So what's the measured IC50 for this one? CC(C)Oc1cc2c(Nc3ccc(Cl)c(Cl)c3)ncnc2cc1OCC1CNCCO1 (stereo unspecified)
Output: < 0.05 µM

Task: So what's the measured IC50 for this one? COc1cc2c(Nc3cc(Cl)c(Br)cc3F)ncnc2cc1OC[C@@H]1CN2CCOC[C@H]2CO1
Output: 0.05 to 1 µM

Task: So what's the measured IC50 for this one? COc1cc2c(Nc3ccc(Cl)c(Cl)c3)ncnc2cc1OCc1csc(N2CCN(C)CC2)n1
Output: 0.05 to 1 µM

Task: So what's the measured IC50 for this one? COc1cc2c(Nc3ccc(Br)c(Cl)c3C)ncnc2cc1OCC1CN(C)CCO1 (stereo unspecified)
Output: 0.05 to 1 µM

Task: So what's the measured IC50 for this one? COc1cc2c(Nc3ccc(Br)c(Cl)c3)ncnc2cc1O[C@H]1CO[C@H]2[C@@H]1OC[C@@H]2O
Output: 0.05 to 1 µM

Task: So what's the measured IC50 for this one? COc1cc2c(Nc3ccc(Br)c(Cl)c3)ncnc2cc1O[C@H]1CO[C@H]2[C@@H]1OC[C@@H]2OC(C)=O
Output: 1 to 20 µM

Task: So what's the measured IC50 for this one? COc1cc2c(Nc3ccc(Cl)c(Cl)c3F)ncnc2cc1OC[C@@H]1CN(C)CC(=O)N1
Output: 0.05 to 1 µM

Task: So what's the measured IC50 for this one? COc1cc2c(Nc3ccc(Cl)c(Cl)c3)ncnc2cc1OCC1CN(C(=O)c2cccnc2Cl)CCO1 (stereo unspecified)
Output: < 0.05 µM

Task: So what's the measured IC50 for this one? COc1cc2c(Nc3ccc(Br)c(Cl)c3)ncnc2cc1O[C@@H]1CO[C@H]2[C@@H]1OC[C@@H]2OS(C)(=O)=O
Output: 1 to 20 µM

Task: So what's the measured IC50 for this one? COc1cc2c(Nc3ccc(Br)c(Cl)c3)ncnc2cc1O[C@H]1CO[C@H]2[C@@H]1OC[C@@H]2N
Output: 1 to 20 µM

Task: So what's the measured IC50 for this one? COc1cc2c(Nc3ccc(N4CCN(C)CC4)c(Cl)c3Cl)ncnc2cc1O[C@H]1CO[C@H]2[C@@H]1OC[C@@H]2F
Output: 1 to 20 µM

Task: So what's the measured IC50 for this one? COc1cc2c(Nc3ccc(Cl)c(Cl)c3F)ncnc2cc1OC[C@H]1CN2CCOC[C@H]2CO1
Output: 0.05 to 1 µM

Task: So what's the measured IC50 for this one? CCOc1cc2c(Nc3ccc(Cl)c(Cl)c3)ncnc2cc1OCC1CNCCO1 (stereo unspecified)
Output: < 0.05 µM

Task: So what's the measured IC50 for this one? COc1cc2c(Nc3ccc(Cl)c(Cl)c3)ncnc2cc1OC[C@H]1CN2CCC[C@H]2CO1
Output: < 0.05 µM

Task: So what's the measured IC50 for this one? COc1cc2c(Nc3ccc(Cl)c(Cl)c3)ncnc2cc1OCC1CN(C(N)=NC#N)CCO1 (stereo unspecified)
Output: < 0.05 µM

Task: So what's the measured IC50 for this one? COc1cc2c(Nc3ccc(C)c(Cl)c3Cl)ncnc2cc1OCC1CN(C)CCO1 (stereo unspecified)
Output: 1 to 20 µM

Task: So what's the measured IC50 for this one? CCOc1cc2c(Nc3ccc(Cl)c(Cl)c3)ncnc2cc1OCC1CN(C)CCO1 (stereo unspecified)
Output: < 0.05 µM

Task: So what's the measured IC50 for this one? COc1cc2c(Nc3ccc(Cl)c(Cl)c3)ncnc2cc1OCC1CN(S(C)(=O)=O)CCO1 (stereo unspecified)
Output: < 0.05 µM

Task: So what's the measured IC50 for this one? COc1cc2c(Nc3ccc(Br)c(Cl)c3F)ncnc2cc1OC[C@H]1CN2CCOC[C@H]2CO1
Output: 0.05 to 1 µM

Task: So what's the measured IC50 for this one? COc1cc2c(Nc3ccc(Cl)c(Cl)c3)ncnc2cc1OC1C[C@@H]2CN(C)C[C@@H]2C1 (stereo partly specified)
Output: 0.05 to 1 µM

Task: So what's the measured IC50 for this one? COc1cc2c(Nc3ccc(F)c(Cl)c3F)ncnc2cc1OCC1CN(C)CCO1 (stereo unspecified)
Output: < 0.05 µM

Task: So what's the measured IC50 for this one? COc1cc2c(Nc3ccc(Cl)c(Cl)c3)ncnc2cc1OCC1CN(S(=O)(=O)CCCCl)CCO1 (stereo unspecified)
Output: 0.05 to 1 µM

Task: So what's the measured IC50 for this one? COc1cc2c(Nc3ccc(Br)c(Cl)c3Cl)ncnc2cc1OC[C@@H]1CN2CCOC[C@H]2CO1
Output: 1 to 20 µM

Task: So what's the measured IC50 for this one? COc1cc2c(Nc3cc(F)c(Br)c(F)c3)ncnc2cc1OCC1CN(C)CCO1 (stereo unspecified)
Output: 0.05 to 1 µM
